# System: HL-60(TB) leukemia
# assay.name: NCI-60 one-dose screen, 48 h
# measurement.parameters: 10 µM unless noted
Compounds without any hit were thinned out: in the full panel of roughly 83,000, 20% have a hit. The source made the active and inactive calls. The calls were made as follows: active = growth percent below 10; inactive = the rest.
Use one of these outcomes when replying: active, inactive

Example entries and their recorded answers appear below.
1) CS(=O)(=O)N1CCN(Cc2cc3nc(-c4cccc5[nH]ncc45)nc(N4CCOCC4)c3s2)CC1: inactive
2) Brc1ccc(-c2nn(-c3ccccc3)cc2-c2nn[nH]n2)s1: inactive

Query compound follows.
For this compound, state the assay outcome: Cc1nc2ccccc2c(=O)n1-c1cccc(OCc2cn(-c3cccc(O)c3)nn2)c1 inactive
